Measured values drawn from PubChem BioAssay for this set.

# Tested on: TRPC4 (mouse), co-expressed with 5HT1a in HEK293
# run description: enhancement of serotonin-evoked TRPC4 response – cell-based, second counter screen, HEK293 TRPC4/5HT1a, Fluo-4, counter-screen for TRPC4 potentiator project, confirmation (AID 434979)
# run conditions: Fluo-4 calcium flux, at 10 µM, serotonin added at its EC20 dose
The source made the active and inactive calls.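 How the source made its calls: active means signal rise over 3 SD above mean of control wells given weak agonist, in both repeats and first screen; inactive means the rest.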
Pick one and only one: 1.0 for active, 0.0 for inactive

| compound | target or system | assigned category |
| --- | --- | --- |
| Cc1ccc(Sc2ccc(CO)cc2[N+](=O)[O-])cc1 | TRPC4 (mouse), co-expressed with 5HT1a in HEK293 | 0.0 |
| c1ccc(Nc2nc(N3CCCCC3)nc(N3CCNCC3)n2)cc1 | TRPC4 (mouse), co-expressed with 5HT1a in HEK293 | 1.0 |
| CCCc1ccc(OCc2ccc(C(=O)N3CCCC3)o2)cc1 | TRPC4 (mouse), co-expressed with 5HT1a in HEK293 | 1.0 |
| OCCC1CN(Cc2ccccc2-c2ccco2)CCN1Cc1ccccc1 (stereo not drawn) | TRPC4 (mouse), co-expressed with 5HT1a in HEK293 | 0.0 |
| CN(CCc1ccccn1)C(=O)CC1C(=O)NCCN1Cc1cccc(F)c1 (stereo not drawn) | TRPC4 (mouse), co-expressed with 5HT1a in HEK293 | 0.0 |

State the result this test recorded for CC1(C)CC2CC(C)(CN2CC(O)COc2ccccc2)C1 (stereo not drawn) .
0.0

Proceed to Cc1ccc(-c2c(C(=O)N/N=C/c3ccc(OC(C)C)cc3)nnn2-c2nonc2N)cc1
1.0

Next: O=C(c1cccc(C(F)(F)F)c1)C1CCCN(Cc2cccn2-c2ccccn2)C1 (stereo not drawn)
0.0
